B1: 2M8U (parent)
chain: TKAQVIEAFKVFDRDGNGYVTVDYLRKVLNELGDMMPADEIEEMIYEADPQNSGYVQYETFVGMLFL

Variants of: B1
Assay remarks: folding stability dG (cDNA display proteolysis); higher = more stable
Test settings: PBS, room temperature
Measured folding stability dG, listed per entry.

Measured folding stability dG of "M44W" : 3.21 kcal/mol

"Q4P" has a reported folding stability dG of 2.35 kcal/mol

The value of folding stability dG measured for the variant "Y19N" turned out to be 2.75 kcal/mol

The variant "F9C" showed folding stability dG equal to 3.12 kcal/mol

Item: "Y46F" | folding stability dG: 3.55 kcal/mol

Looking up "N52S" , I see its folding stability dG listed as 3.57 kcal/mol

Reported folding stability dG ( "N17K" ) = 3.01 kcal/mol

Data point: "N30K" ; folding stability dG = 3.59 kcal/mol

Record "D39V" , field folding stability dG: 4.01 kcal/mol

Measured folding stability dG, "Y58T" : 2.02 kcal/mol
